Assignment: determine reported IC50 for the given compounds.
Test system: HepG2
Assay: Cytotoxicity against human HepG2 cells after 72 hrs by SRB assay
Type: functional, cell-based
Details: HepG2, 72 h
Answer in µM, number only, no unit symbol.

# C=C1CCCC(C)(C)C1CC[C@]1(C)c2c(O)cc3c(c2O[C@@H]1C)C(=O)C=C(OC)C3=O (stereo partly specified) with HepG2: IC50 is 18.5

# C=C1CCCC(C)(C)C1CC[C@@]1(C)c2c(O)cc3c(c2O[C@@H]1CO)C(=O)C=C(OC)C3=O (stereo partly specified) with HepG2: IC50 is 11.9

# C=C1CCCC(C)(C)C1CC[C@@]1(C)c2c(O)cc3c(c2O[C@@H]1C)C(=O)C=C(OC)C3=O (stereo partly specified) with HepG2: IC50 is 17.5

# COc1cccc2nc3c(OC/C=C(\C)CCC=C(C)C)cccc3nc12 with HepG2: IC50 is 52.7

# CC(C)=CCC/C(C)=C/COc1cccc2nc3c(O)cccc3nc12 with HepG2: IC50 is 22.3

# C=C1CCCC(C)(C)C1CC[C@]1(C)c2c(O)cc3c(c2O[C@@H]1CO)C(=O)C=C(OC)C3=O (stereo partly specified) with HepG2: IC50 is 15.5
